# System: L. donovani promastigotes (NHOM/IN/80/DD8)
# protocol text: In vitro antileishmanial activity (modified MTT assay)
# Type: cell-based, Leishmania donovani
# test context: Leishmania donovani, 72 h, read-out: IC50 (concentration that decreased cell growth by 50 %)
# Procedure: The assay for in vitro antileishmanial activity on culture of L. donovani promastigotes (NHOM/IN/80/DD8) was carried out in 96-well tissue culture plates. The promastigotes culture was maintained at 22 ^οC in modified RPMI 1640 pH 7.4 (without phenol red) with 10 % FCS medium. Drug dilutions were prepared in DMSO and appropriate concentration of each drug was used in triplicate. […] Accordingly, absorbance at 492 nm represented the number of live cells. […]
For each entry below, report its IC50 value.
Quick reminder: number only, in µg/mL, skip the unit.

*Q* Which value of IC50 has been reported for O=c1oc2ccccc2c(O)c1C(c1ccccc1)c1c(O)c2ccccc2oc1=O [3a] in the records?
*A* 155

*Q* // next record O=c1oc2ccccc2c(O)c1C(c1ccc(F)cc1)c1c(O)c2ccccc2oc1=O [3d]
*A* 295

*Q* What would you report for COc1ccc(C(c2c(O)c3ccccc3oc2=O)c2c(O)c3ccccc3oc2=O)cc1OC [3f] ?
*A* 275

*Q* Similarly, O=c1oc2ccccc2c(O)c1C(c1c(Cl)cccc1Cl)c1c(O)c2ccccc2oc1=O [3c] ?
*A* 320

*Q* How about O=c1oc2ccccc2c(O)c1C(c1ccc(Cl)cc1)c1c(O)c2ccccc2oc1=O [3b] ?
*A* 312

*Q* Continue with COc1ccc(C(c2c(O)c3ccccc3oc2=O)c2c(O)c3ccccc3oc2=O)cc1 [3e]
*A* 218

*Q* Now the same for CN(C)c1ccc(C(c2c(O)c3ccccc3oc2=O)c2c(O)c3ccccc3oc2=O)cc1 [3l]
*A* 150

*Q* How about COc1cc(C(c2c(O)c3ccccc3oc2=O)c2c(O)c3ccccc3oc2=O)ccc1O [3j] ?
*A* 198

*Q* Same read-out for COc1ccc(OC)c(C(c2c(O)c3ccccc3oc2=O)c2c(O)c3ccccc3oc2=O)c1 [3h] ?
*A* 198

*Q* Request: N#Cc1ccc(C(c2c(O)c3ccccc3oc2=O)c2c(O)c3ccccc3oc2=O)cc1 [3k]
*A* 225

*Q* Then what about the molecule COc1cc(C(c2c(O)c3ccccc3oc2=O)c2c(O)c3ccccc3oc2=O)cc(OC)c1OC [3i] ?
*A* 262
